Test system: MCF7
assay.info: NCI tumour cell line growth inhibition, 48 h
Activity calls are given as the source filed them. Rule as the data show it: active = GI50 up to about 1.1 µM and inactive = higher. Where a SMILES comes first, the peptide text is derived from it. [ ]: non-standard residue; d: D form. The star is where a group is joined. Phe(4-NO2) = N[CH](Cc1ccc([N+](=O)[O-])cc1)C(=O)O; Boc = CC(C)(C)OC(=O)*
recorded.endpoint: GI50

- compound: "Cc1c(CN2CCOCC2)c(CN2CCOCC2)c(C)n1-c1ccc(Cl)cn1"
  result.value: "> 100 µM (inactive)"
- compound: "Clc1ccc(Oc2ccc(/N=C/c3ccc(Cl)cc3Cl)cc2Cl)cc1"
  result.value: "33.7 µM (inactive)"
- compound: "CC1OC(OC2C(Oc3cc(O)c4c(c3)O[C@H](c3ccc(O)cc3)CC4=O)OC(CO)C(O)C2O)C(O)C(O)C1O (stereo partly drawn)"
  result.value: "> 100 µM (inactive)"
- compound: "COc1cc2c(C)cc(O)cc2c2cc(O)c(C)cc12"
  result.value: "10.4 µM (inactive)"
- compound: "COc1cc2c(OC)c3cc(C)oc(=O)c3c(O)c2c(O)c1-c1c(OC)cc2c(OC)c3cc(C)oc(=O)c3c(O)c2c1O"
  result.value: "25.6 µM (inactive)"
- compound: "Nn1c(CCCCCCCCc2nnc(-c3c(O)ccc4ccccc34)n2N)nnc1-c1c(O)ccc2ccccc12"
  result.value: "> 100 µM (inactive)"
- compound: "COc1cc(S(=O)(=O)Nc2nc(-c3ccc(N4C(=O)/C(=C/c5ccccc5[N+](=O)[O-])N=C4c4ccccc4)cc3)cs2)ccc1Cl"
  result.value: "34.6 µM (inactive)"
- compound: "CCOP(=O)(OCC)[C@H](O)c1ccsc1"
  result.value: "> 100 µM (inactive)"
- compound: "CCc1c(C)c(C#N)c(=S)n(C2OC(COC(C)=O)C(OC(C)=O)C(OC(C)=O)C2OC(C)=O)c1C (stereo not drawn)"
  result.value: "> 100 µM (inactive)"
- compound: "CC1=NN(c2ccc(S(=O)(=O)O)cc2)C2(C1)C(Cl)C(=O)N2c1nc2ccccc2s1 (stereo not drawn)"
  result.value: "> 100 µM (inactive)"
- compound: "CC(C)=CCC[C@@H](C)C1=C(O)C(=O)C(C)=C(Nc2ccccc2)C1=O"
  result.value: "24.5 µM (inactive)"
- compound: "Cn1c(-c2ccccc2)cc(-c2ccc3c(c2)OCO3)c1-c1cccs1"
  result.value: "> 100 µM (inactive)"
- compound: "N=C(N)NS(=O)(=O)c1ccc(NNc2c3ccccc3nc3ccccc23)cc1"
  result.value: "2.48 µM (inactive)"
- compound: "O=C(OCc1ccccc1)N1CCNCCNCCN(C(=O)OCc2ccccc2)CCNCC1"
  result.value: "17.8 µM (inactive)"
- compound: "Cn1c2ccccc2c(=O)c2c(O)cc3c(c21)C=CC1(CCCCC1)O3"
  result.value: "9.1 µM (inactive)"
- compound: "CCOC(=O)CCC(NC(=O)C(Cc1ccc([N+](=O)[O-])cc1)NC(=O)OC(C)(C)C)C(=O)NC(CCC(=O)OCC)C(=O)OCC (stereo not drawn) (Boc-[Phe(4-NO2)]-Glu(OEt)-Glu(OEt)-OEt; configuration not given here)"
  result.value: "28 µM (inactive)"
- compound: "C#CCN(Cc1ccc2nc(-c3ccccc3)c(Cl)nc2c1)c1ccc(F)cc1"
  result.value: "63.8 µM (inactive)"
- compound: "O=C1C(CN2CCCCC2)CCCC1CN1CCCCC1 (stereo not drawn)"
  result.value: "2.53 µM (inactive)"

----------
Here, each record is paired with measured GI50 data.
System: IGROV-1
assay.info: NCI tumour cell line growth inhibition, 48 h
The source made the active and inactive calls. Rule as the data show it: active = GI50 up to about 1.1 µM and inactive = higher.
recorded.endpoint: GI50

- compound: "COC(=O)C12C3C4C1C1C2C3C41C(=O)O (stereo unspecified)"
  result.value: "> 100 µM (inactive)"
- compound: "CC(=O)O[C@@H]1C[C@@]23C[C@@]24CC[C@H](OC2OCC(O)C(O)C2O)C(C)(C)[C@@H]4CC=C3[C@]2(C)C[C@@H]3OC4(C[C@@H](C)[C@@H]3[C@@]12C)OC(O)[C@@]1(C)O[C@@H]41 (stereo partly specified)"
  result.value: "36.5 µM (inactive)"
- compound: "CC(NC(=O)C(N)CC(=O)O)NC(=O)N1CCCC1 (stereo unspecified)"
  result.value: "> 100 µM (inactive)"
- compound: "CCSc1nc(=S)n(-c2ccccc2)c(C)c1C(C)=O"
  result.value: "> 100 µM (inactive)"
- compound: "CCOC(=O)Cc1cc(OC)c(OC)cc1/C(Cl)=C(\\CO)c1ccc(OC)c(OC)c1"
  result.value: "> 100 µM (inactive)"
- compound: "O=c1c2ccccc2c2ccccc2c(=O)n1Cc1ccc2c(c1)OCO2"
  result.value: "8.51 µM (inactive)"
- compound: "CCC(C#N)NCc1ccc(CNC(C#N)CC)cc1 (stereo unspecified)"
  result.value: "> 100 µM (inactive)"
- compound: "CCN1CCCC(C#N)(c2ccccc2)CC1 (stereo unspecified)"
  result.value: "> 100 µM (inactive)"
- compound: "CCOC(=O)C1(C#N)C(c2ccccc2)CC(O)(c2ccc(OC)cc2)C(C(=O)c2ccc(OC)cc2)C1c1ccccc1 (stereo unspecified)"
  result.value: "> 100 µM (inactive)"
- compound: "COc1ccccc1NC1=NCC(C)S1 (stereo unspecified)"
  result.value: "> 100 µM (inactive)"
- compound: "O=C(c1ccsc1)c1cc2c(s1)C(=O)c1ccsc1C2=O"
  result.value: "0.204 µM (active)"
- compound: "O=C1CSc2ccnc(=O)n21"
  result.value: "> 100 µM (inactive)"
- compound: "O=C1C=C(OCCCl)C(=O)c2c(O)ccc(O)c21"
  result.value: "1.81 µM (inactive)"
- compound: "COc1cc(C2c3cc4c(cc3[C@@H](Nc3cccc(CO)c3)C3COC(=O)[C@H]23)OCO4)cc(OC)c1O (stereo partly specified)"
  result.value: "1.62 µM (inactive)"
- compound: "NCC(Cl)C(O)c1c[nH]c(N)n1 (stereo unspecified)"
  result.value: "0.245 µM (active)"
- compound: "CCOC(=O)C1CN(C2CC2)CCC1=O (stereo unspecified)"
  result.value: "> 100 µM (inactive)"
- compound: "CC1=NN(C(=O)Cc2ccccc2)C(=O)/C1=C\\c1ccc([N+](=O)[O-])cc1"
  result.value: "> 100 µM (inactive)"
- compound: "Sc1ncc(-c2cncc(-c3cnc(S)nc3)n2)cn1"
  result.value: "> 100 µM (inactive)"
- compound: "Cn1c2ccccc2c(=O)c2cccc(C(=O)NC(CS)C(=O)O)c21 (stereo unspecified)"
  result.value: "> 100 µM (inactive)"
- compound: "C=C(CCC/C(C)=C/C=C/[C@@H](C)CCCc1ccoc1)C[C@@H]1OC(=O)[C@H](C)[C@@H]1O"
  result.value: "10.7 µM (inactive)"
- compound: "COC1=CC(=O)[C@@]2(C)C(C)[C@H](c3ccccc3)[C@H]2C1=O (stereo partly specified)"
  result.value: "> 100 µM (inactive)"
- compound: "Cc1cccc(N2C(=O)C(=O)C(c3nc4ccccc4s3)C(=O)C2=O)c1C"
  result.value: "> 100 µM (inactive)"
- compound: "Nc1nc(N)c(N=O)c(Nc2ccc(O)cc2)n1"
  result.value: "7.82 µM (inactive)"
- compound: "COc1ccc(Cc2c3cc(O)c([O-])cc3cc[n+]2C)cc1"
  result.value: "30.3 µM (inactive)"
- compound: "COC(=O)[C@]1(c2cc3ccccc3n2S(=O)(=O)c2ccccc2)CC2CN(C(C)=O)C1CC2=O (stereo partly specified)"
  result.value: "2.57 µM (inactive)"
- compound: "COc1cc(Nc2nc3ccccc3nc2C(=O)O)cc(OC)c1OC"
  result.value: "78.3 µM (inactive)"
- compound: "CCN1C(=O)C(C)S/C1=N\\NC(=O)CSc1nc2ccccc2c(=O)n1CC (stereo unspecified)"
  result.value: "> 100 µM (inactive)"
- compound: "O=C1C2C=CC(n3[nH]c(=O)n(Cc4ccccc4)c3=O)CC2C(=O)N1c1cccc(Cl)c1 (stereo unspecified)"
  result.value: "> 100 µM (inactive)"
- compound: "COc1cc(C2c3c(ccc4ccccc34)C(=O)C3CCC(=O)N32)cc(OC)c1O (stereo unspecified)"
  result.value: "> 25 µM (inactive)"
- compound: "O=C1NC(=O)C2C(=O)NC(=O)C1C2c1c(Cl)cccc1Cl (stereo unspecified)"
  result.value: "> 100 µM (inactive)"
- compound: "O=C(CBr)NCCc1c[nH]c2ccccc12"
  result.value: "1.83 µM (inactive)"
- compound: "COC1Cc2c(C)c(OC(C)=O)c3cccnc3c2O1 (stereo unspecified)"
  result.value: "13.3 µM (inactive)"
- compound: "CC(C)C(=O)Cc1ccc2ccccc2n1"
  result.value: "73.5 µM (inactive)"
- compound: "Nc1ccc(Oc2ccc(C3(c4ccc(Oc5ccc(N)c(O)c5)cc4)C4CC5C6CC7CC5C3C(C7)C6C4)cc2)cc1O"
  result.value: "2.2 µM (inactive)"
- compound: "Oc1[nH]c(NCc2ccc(Cl)cc2)nc2ncnc1-2"
  result.value: "> 100 µM (inactive)"
- compound: "O=C(OCc1ccccc1)N1CCNCCNCCN(C(=O)OCc2ccccc2)CCNCC1"
  result.value: "32.1 µM (inactive)"
